assayed.system: FmtA^Δ80 (Staphylococcus aureus, UniProt O50608)
Sequence (O50608 81-397): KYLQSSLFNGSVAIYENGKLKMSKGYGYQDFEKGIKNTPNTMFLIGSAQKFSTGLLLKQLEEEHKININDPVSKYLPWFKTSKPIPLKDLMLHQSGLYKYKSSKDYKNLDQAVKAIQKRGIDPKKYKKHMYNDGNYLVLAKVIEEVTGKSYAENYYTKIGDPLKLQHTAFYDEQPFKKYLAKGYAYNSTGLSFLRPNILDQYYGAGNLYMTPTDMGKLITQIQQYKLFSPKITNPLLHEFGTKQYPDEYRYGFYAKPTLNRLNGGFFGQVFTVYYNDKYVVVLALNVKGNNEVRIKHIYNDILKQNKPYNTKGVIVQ
protocol.text: isothermal titration calorimetry, one-site model

compound	units.text	Kd
NC[C@@H]1O[C@H](O[C@H]2[C@@H](O)[C@H](O[C@@H]3[C@@H](O)[C@H](N)C[C@H](N)[C@H]3O[C@H]3O[C@H](CO)[C@@H](O)[C@H](O)[C@H]3N)O[C@@H]2CO)[C@H](N)[C@@H](O)[C@@H]1O	µM	8.56
[H]/N=C(/N)N[C@H]1[C@H](O)[C@@H](O)[C@H](O[C@@H]2O[C@@H](C)[C@](O)(C=O)[C@H]2O[C@@H]2O[C@@H](CO)[C@H](O)[C@@H](O)[C@@H]2NC)[C@@H](N/C(N)=N\[H])[C@@H]1O	µM	11.1
NC[C@H]1O[C@H](O[C@H]2[C@H](O)[C@@H](O[C@H]3O[C@H](CO)[C@@H](O)[C@H](N)[C@H]3O)[C@H](N)C[C@@H]2N)[C@H](N)C[C@@H]1O	µM	25.8
CO/N=C1\CN(c2nc3c(cc2F)c(=O)c(C(=O)O)cn3C2CC2)CC1CN (stereo not shown)	µM	1.7

Recorded values, source paper PMC9631409.
